test: Stability of compound at pH 2 assessed as half life; type: physicochemical; conditions: buffer
MEASUREMENT LABEL: half-life (days)
Reply numerically in days, unit not repeated.

- CCOC1(C(F)(F)F)O[C@@H]2O[C@]3(C)CC[C@H]4[C@H](C)CC[C@@H]([C@H]1C)[C@@]24OO3 (some centres undefined): 20.8
- C[C@@H]1CC[C@H]2[C@@H](C)C(OC(=O)CCC(=O)O)(C(F)(F)F)O[C@@H]3O[C@]4(C)CC[C@@H]1[C@]32OO4 (some centres undefined): 1.25
- C[C@@H]1CC[C@H]2[C@@H](C)C(O)(C(F)(F)F)O[C@@H]3O[C@]4(C)CC[C@@H]1[C@]32OO4 (some centres undefined): 31.7

Next compound, half-life to be filled in.
What does the record list as half-life for COC1(C(F)(F)F)O[C@@H]2O[C@]3(C)CC[C@H]4[C@H](C)CC[C@@H]([C@H]1C)[C@@]24OO3 (some centres undefined) ? 27.5

---

# reported IC50; entries follow
system: Plasmodium falciparum; assay: Antiplasmodial activity against Plasmodium falciparum W2; type: functional, organism-based
The reply should be a number in nM, with the unit left off.

Example entries begin here.
- C[C@@H]1CC[C@H]2[C@@H](C)C(=O)O[C@@H]3O[C@@]4(C)CC[C@@H]1[C@]32OO4: 6.7
- Cc1cccc(C)c1Nc1nc(OCc2cn(CCNc3ccnc4cc(Cl)ccc34)nn2)nc(N(C)C)n1: 1690
- CC(C)CN(NC(=O)C1CCC2(CC1)OOC1(OO2)C2CC3CC(C2)CC1C3)c1nc(C#N)ncc1Cl (centres undefined): 9.8
- C[C@@H]1C[C@@H]2CC3(CC[C@@H]2C2CC[C@@]4(C)C(CC[C@@H]4[C@H](C)CCCNCCNc4ccnc5cc(Cl)ccc45)C21)OOC1(CCCCC1)OO3 (some centres undefined): 22.9
- CC(C)CN(NC(=O)C1CCC2(CC1)OOC1(OO2)C2CC3CC(C2)CC1C3)c1ccnc(C#N)n1 (centres undefined): 9.8

Could you tell me which IC50 is on file for Cc1cccc(C)c1Nc1nc(OCc2cn(CCCNc3ccnc4cc(Cl)ccc34)nn2)nc(N(C)C)n1 ? 730

Entry CC(=O)O[C@H]1CC2C(C3CC[C@H]([C@H](C)CCC(=O)NCCNc4ccnc5cc(Cl)ccc45)[C@]31C)[C@H](OC(C)=O)C[C@@H]1CC3(CC[C@H]21)OOC1(CCCCC1)OO3 (some centres undefined) : reported IC50 = ? 4.47

---

tested on: Plasmodium falciparum; assay: Antiplasmodial activity against Plasmodium falciparum DD2; type: functional, organism-based
MEASUREMENT LABEL: IC50

// solved cases for IC50 follow
* COc1ccc2nc3cc(Cl)ccc3c(N3CCN(CCO[C@H]4O[C@@H]5O[C@]6(C)CC[C@H]7[C@H](C)CC[C@@H]([C@H]4C)[C@@]57OO6)CC3)c2c1 | 430 nM
* COc1ccc2nc3cc(Cl)ccc3c(NCCN3CCN(CCO[C@H]4O[C@@H]5O[C@]6(C)CC[C@H]7[C@H](C)CC[C@@H]([C@H]4C)[C@@]57OO6)CC3)c2c1 | 50.4 nM
* COc1ccc2nc3cc(Cl)ccc3c(NCCN3CCNCC3)c2c1 | 142 nM
* COc1ccc2nc3cc(Cl)ccc3c(N3CCN(CCO[C@H]4O[C@@H]5O[C@]6(C)CC[C@H]7[C@H](C)CC[C@@H]([C@H]4C)[C@@]57OO6)C(C)C3)c2c1 (stereo partly specified) | 41.3 nM
* COc1ccc2nc3cc(Cl)ccc3c(NCCCN(C)CCO[C@H]3O[C@@H]4O[C@]5(C)CC[C@H]6[C@H](C)CC[C@@H]([C@H]3C)[C@@]46OO5)c2c1 | 38.5 nM

We now examine a further molecule.
# lookup: IC50 of COc1ccc2nc3cc(Cl)ccc3c(NCCNCCO[C@H]3O[C@@H]4O[C@]5(C)CC[C@H]6[C@H](C)CC[C@@H]([C@H]3C)[C@@]46OO5)c2c1 35.3 nM
